Each recorded value in this set is attributed to ChEMBL document CHEMBL4732256.

The entries below are paired with their reported pIC50.
# System: A549
# testDescription: Cytotoxicity against human A549 cells assessed as reduction in cell viability by MTT assay
# Type: functional, cell-based
Give only the number. pIC50 is defined as minus log10 of concentration in molar units.

Param item = C[C@H]1[C@H](OC(=O)CCC(=O)OCCCCC[P+](c2ccccc2)(c2ccccc2)c2ccccc2)O[C@@H]2O[C@@]3(C)CC[C@H]4[C@H](C)CC[C@@H]1[C@@]24OO3 ; retrieve measured pIC50. 5.25

Param item = C[C@H]1[C@@H](O)O[C@@H]2O[C@@]3(C)CC[C@H]4[C@H](C)CC[C@@H]1[C@@]24OO3 ; retrieve measured pIC50. 4.56

Param item = C[C@H]1[C@H](OC(=O)CCCCC[P+](c2ccccc2)(c2ccccc2)c2ccccc2)O[C@@H]2O[C@@]3(C)CC[C@H]4[C@H](C)CC[C@@H]1[C@@]24OO3.[Br-] ; retrieve measured pIC50. 5.57

###

# Test system: A549
# testDescription: Cytotoxicity against human A549 cells assessed as reduction in cell viability by MTT assay
# Format: functional, cell-based
propertyMeasured: IC50

Here are 4 molecules together with their reported answers.
molecule: C[C@H]1[C@H](OC(=O)CCCC[P+](c2ccccc2)(c2ccccc2)c2ccccc2)O[C@@H]2O[C@@]3(C)CC[C@H]4[C@H](C)CC[C@@H]1[C@@]24OO3.[Br-]
IC50: 4.7 µM

molecule: C[C@H]1[C@H](OC(=O)CCC[P+](c2ccccc2)(c2ccccc2)c2ccccc2)O[C@@H]2O[C@@]3(C)CC[C@H]4[C@H](C)CC[C@@H]1[C@@]24OO3
IC50: 12.2 µM

molecule: C[C@H]1[C@H](OC(=O)CCC(=O)O)O[C@@H]2O[C@@]3(C)CC[C@H]4[C@H](C)CC[C@@H]1[C@@]24OO3 [ARTESUNATE]
IC50: 5.4 µM

molecule: C[C@H]1[C@H](OC(=O)CC[P+](c2ccccc2)(c2ccccc2)c2ccccc2)O[C@@H]2O[C@@]3(C)CC[C@H]4[C@H](C)CC[C@@H]1[C@@]24OO3
IC50: 26.5 µM

Would you kindly look at the next entry?
Param item = C[C@H]1[C@H](OC(=O)CCC(=O)OCCC[P+](c2ccccc2)(c2ccccc2)c2ccccc2)O[C@@H]2O[C@@]3(C)CC[C@H]4[C@H](C)CC[C@@H]1[C@@]24OO3 ; retrieve measured IC50. 5.5 µM

###

# Test system: HepG2
# testDescription: Cytotoxicity against human HepG2 cells assessed as reduction in cell viability by MTT assay
# Format: functional, cell-based
propertyMeasured: IC50 (µM)
Field: numeric (µM). Do not append units.

Here are 5 compounds together with their reported answers.
compound: C[C@H]1[C@H](OC(=O)CCC(=O)OCCCCC[P+](c2ccccc2)(c2ccccc2)c2ccccc2)O[C@@H]2O[C@@]3(C)CC[C@H]4[C@H](C)CC[C@@H]1[C@@]24OO3
testedTarget: HepG2
IC50 (µM): 16.1
--
compound: C[C@H]1[C@H](OC(=O)CCCC[P+](c2ccccc2)(c2ccccc2)c2ccccc2)O[C@@H]2O[C@@]3(C)CC[C@H]4[C@H](C)CC[C@@H]1[C@@]24OO3.[Br-]
testedTarget: HepG2
IC50 (µM): 5.2
--
compound: C[C@H]1[C@@H](O)O[C@@H]2O[C@@]3(C)CC[C@H]4[C@H](C)CC[C@@H]1[C@@]24OO3 [ARTENIMOL]
testedTarget: HepG2
IC50 (µM): 73.6
--
compound: C[C@H]1[C@H](OC(=O)CCC(=O)OCCC[P+](c2ccccc2)(c2ccccc2)c2ccccc2)O[C@@H]2O[C@@]3(C)CC[C@H]4[C@H](C)CC[C@@H]1[C@@]24OO3
testedTarget: HepG2
IC50 (µM): 13
--
compound: C[C@H]1[C@H](OC(=O)CCC(=O)O)O[C@@H]2O[C@@]3(C)CC[C@H]4[C@H](C)CC[C@@H]1[C@@]24OO3 [ARTESUNATE]
testedTarget: HepG2
IC50 (µM): 47

Param item = C[C@H]1[C@H](OC(=O)CC[P+](c2ccccc2)(c2ccccc2)c2ccccc2)O[C@@H]2O[C@@]3(C)CC[C@H]4[C@H](C)CC[C@@H]1[C@@]24OO3 ; retrieve measured IC50. 1.2

Param item = C[C@H]1[C@H](OC(=O)CCCCC[P+](c2ccccc2)(c2ccccc2)c2ccccc2)O[C@@H]2O[C@@]3(C)CC[C@H]4[C@H](C)CC[C@@H]1[C@@]24OO3.[Br-] ; retrieve measured IC50. 5.3

Param item = C[C@H]1[C@H](OC(=O)CCC[P+](c2ccccc2)(c2ccccc2)c2ccccc2)O[C@@H]2O[C@@]3(C)CC[C@H]4[C@H](C)CC[C@@H]1[C@@]24OO3 ; retrieve measured IC50. 35.7

###

# System: SMMC-7721
# testDescription: Cytotoxicity against human SMMC-7721 cells assessed as reduction in cell viability by MTT assay
# Type: functional, cell-based
propertyMeasured: IC50
Mention the unit after the number when you answer.

Here are 6 molecules together with their reported answers.
molecule: C[C@H]1[C@@H](O)O[C@@H]2O[C@@]3(C)CC[C@H]4[C@H](C)CC[C@@H]1[C@@]24OO3
IC50: 61.4 µM
//
molecule: C[C@H]1[C@H](OC(=O)CC[P+](c2ccccc2)(c2ccccc2)c2ccccc2)O[C@@H]2O[C@@]3(C)CC[C@H]4[C@H](C)CC[C@@H]1[C@@]24OO3
IC50: 62.7 µM
//
molecule: C[C@H]1[C@H](OC(=O)CCC(=O)O)O[C@@H]2O[C@@]3(C)CC[C@H]4[C@H](C)CC[C@@H]1[C@@]24OO3 [ARTESUNATE]
IC50: 72.3 µM
//
molecule: C[C@H]1[C@H](OC(=O)CCC[P+](c2ccccc2)(c2ccccc2)c2ccccc2)O[C@@H]2O[C@@]3(C)CC[C@H]4[C@H](C)CC[C@@H]1[C@@]24OO3
IC50: 34.2 µM
//
molecule: C[C@H]1[C@H](OC(=O)CCCC[P+](c2ccccc2)(c2ccccc2)c2ccccc2)O[C@@H]2O[C@@]3(C)CC[C@H]4[C@H](C)CC[C@@H]1[C@@]24OO3.[Br-]
IC50: 18 µM
//
molecule: C[C@H]1[C@H](OC(=O)CCC(=O)OCCCCC[P+](c2ccccc2)(c2ccccc2)c2ccccc2)O[C@@H]2O[C@@]3(C)CC[C@H]4[C@H](C)CC[C@@H]1[C@@]24OO3
IC50: 13 µM

What reported IC50 corresponds to C[C@H]1[C@H](OC(=O)CCCCC[P+](c2ccccc2)(c2ccccc2)c2ccccc2)O[C@@H]2O[C@@]3(C)CC[C@H]4[C@H](C)CC[C@@H]1[C@@]24OO3.[Br-] on SMMC-7721? 11.9 µM

What reported IC50 corresponds to C[C@H]1[C@H](OC(=O)CCC(=O)OCCC[P+](c2ccccc2)(c2ccccc2)c2ccccc2)O[C@@H]2O[C@@]3(C)CC[C@H]4[C@H](C)CC[C@@H]1[C@@]24OO3 on SMMC-7721? 23.6 µM

###

# Test system: HUVEC
# testDescription: Cytotoxicity against HUVEC assessed as reduction in cell viability by MTT assay
# Type: cell-based
# appliedConditions: Homo sapiens
The entries below are paired with their reported log10 of IC50.
Friendly reminder: values = log10 of IC50, unit µM.

compound: C[C@H]1[C@H](OC(=O)CCCC[P+](c2ccccc2)(c2ccccc2)c2ccccc2)O[C@@H]2O[C@@]3(C)CC[C@H]4[C@H](C)CC[C@@H]1[C@@]24OO3.[Br-]
log10 of IC50: 1.39
--
compound: C[C@H]1[C@H](OC(=O)CCCCC[P+](c2ccccc2)(c2ccccc2)c2ccccc2)O[C@@H]2O[C@@]3(C)CC[C@H]4[C@H](C)CC[C@@H]1[C@@]24OO3.[Br-]
log10 of IC50: 0.96
--
compound: C[C@H]1[C@@H](O)O[C@@H]2O[C@@]3(C)CC[C@H]4[C@H](C)CC[C@@H]1[C@@]24OO3 [ARTENIMOL]
log10 of IC50: 2.26

Param item = C[C@H]1[C@H](OC(=O)CCC(=O)O)O[C@@H]2O[C@@]3(C)CC[C@H]4[C@H](C)CC[C@@H]1[C@@]24OO3 [ARTESUNATE] ; retrieve measured log10 of IC50. 1.94

Param item = C[C@H]1[C@H](OC(=O)CC[P+](c2ccccc2)(c2ccccc2)c2ccccc2)O[C@@H]2O[C@@]3(C)CC[C@H]4[C@H](C)CC[C@@H]1[C@@]24OO3 ; retrieve measured log10 of IC50. 1.82

Param item = C[C@H]1[C@H](OC(=O)CCC(=O)OCCC[P+](c2ccccc2)(c2ccccc2)c2ccccc2)O[C@@H]2O[C@@]3(C)CC[C@H]4[C@H](C)CC[C@@H]1[C@@]24OO3 ; retrieve measured log10 of IC50. 1.26

Param item = C[C@H]1[C@H](OC(=O)CCC(=O)OCCCCC[P+](c2ccccc2)(c2ccccc2)c2ccccc2)O[C@@H]2O[C@@]3(C)CC[C@H]4[C@H](C)CC[C@@H]1[C@@]24OO3 ; retrieve measured log10 of IC50. 1.44

Param item = C[C@H]1[C@H](OC(=O)CCC[P+](c2ccccc2)(c2ccccc2)c2ccccc2)O[C@@H]2O[C@@]3(C)CC[C@H]4[C@H](C)CC[C@@H]1[C@@]24OO3 ; retrieve measured log10 of IC50. 2.06
